- System: Tetrahymena pyriformis
- assay.name: 48 h IGC50 (-log10 mol/L); higher = more toxic
result.type: 48 h IGC50 (-log10 mol/L)
Please reply with the value in numeric form only.

structure.string	target.system	48 h IGC50 (-log10 mol/L)
C=CCCC(C)=O	Tetrahymena pyriformis	1.86
CCCCCCCCCC(C)=O	Tetrahymena pyriformis	4.54
CC(=O)OC(C)C	Tetrahymena pyriformis	1.41

Consider CCCCCC(=O)Cl . Its measured 48 h IGC50 (-log10 mol/L) is 3.34

48 h IGC50 (-log10 mol/L) measured on O=C(O)c1ccc(O)cc1 = 1.98

The recorded 48 h IGC50 (-log10 mol/L) for entry CCOc1ccc(C=O)cc1 equals 3.07

---

Each item that follows carries a reported 48 h IGC50 (-log10 mol/L).
- Test system: Tetrahymena pyriformis
- assay.name: 48 h IGC50 (-log10 mol/L); higher = more toxic
Write no unit; give the number alone.

Per the record, CC(C)(CN)CO has 48 h IGC50 (-log10 mol/L) of 2.08

48 h IGC50 (-log10 mol/L) for Cc1cccc(N)c1C is 2.57

Given item CC(C)CC(=O)O , the value recorded as its 48 h IGC50 (-log10 mol/L) is 2.66

The recorded 48 h IGC50 (-log10 mol/L) for C=CC(=O)OCCCCCCC is 4.09

Entry Oc1c(Cl)cc(F)cc1Cl ; 48 h IGC50 (-log10 mol/L) = 3.8

Value of 48 h IGC50 (-log10 mol/L) reported for the molecule CNCCO is 1.18

Sure, the documented 48 h IGC50 (-log10 mol/L) for CCOC(=O)c1ccc(Br)cc1 is 4.33

Documented 48 h IGC50 (-log10 mol/L) of OCc1ccccc1O : 2.05

48 h IGC50 (-log10 mol/L) reading for c1ccc(Cc2ccccn2)cc1 : 3.38

The recorded 48 h IGC50 (-log10 mol/L) for entry Nc1c(Cl)c(Cl)cc(Cl)c1Cl equals 4.76

Entry N#Cc1ccccc1C(N)=O — recorded 48 h IGC50 (-log10 mol/L) = 2.68

Field 48 h IGC50 (-log10 mol/L) (entry CC(C)c1cccc(C(C)C)c1N ) reads 3.76

response.value for CC(C)(C)c1cc(O)cc(C(C)(C)C)c1 (field: 48 h IGC50 (-log10 mol/L)) = 4.64

---

- System: Pimephales promelas
- assay.name: 96 h LC50 (-log10 mol/L); higher = more toxic
// thresholds for 96 h LC50 (-log10 mol/L) classes: L = under 3, M = from 3 up to 4, H = 4 and over

molecule	label.class
C1=CC2C3C=CC(C3)C2C1 (stereo unspecified)	M
CC1=CC(=O)CC(C)(C)C1	L
C1N2CN3CN1CN(C2)C3	L
CC(=O)CCC=C(C)C	M
NC(=O)c1ccccc1N	L

Request: Determine which band this molecule sits in: O=Cc1cc([N+](=O)[O-])ccc1Cl
Result: H

Request: Which of the defined bands does the recorded 96 h LC50 (-log10 mol/L) of CCCCCO sit within?
Result: L

Request: Lab note: which band did CCSCCCCSCC land in?
Result: H

Request: Class for C=CC#N ?
Result: M

Request: Tag the class for O=CN(c1ccccc1)c1ccccc1
Result: M

Request: Which category does the recorded 96 h LC50 (-log10 mol/L) put CCOc1ccc(C=O)cc1 in?
Result: M

---

Entries and their 48 h IGC50 (-log10 mol/L) values follow.
- System: Tetrahymena pyriformis
- assay.name: 48 h IGC50 (-log10 mol/L); higher = more toxic
Enter a number only.

Past entries and their recorded results:
compound	48 h IGC50 (-log10 mol/L)
C=CCc1ccccc1	3.19
NCCCCc1ccccc1	3.62
COc1ccccc1Cl	3.22

# compound C=C(C=O)CC ; its 48 h IGC50 (-log10 mol/L) = 3.91

Lab note: measured 48 h IGC50 (-log10 mol/L) of C=C(C)C(=O)OCCCCCC was 4.09

Note to self: 48 h IGC50 (-log10 mol/L) recorded for CC1CCCCC1=O (stereo not given) was 2.19

Just so you know, measured 48 h IGC50 (-log10 mol/L) for COc1cc(CCO)ccc1O came out at 2.82

Record COc1ccc([N+](=O)[O-])cn1 . Reported 48 h IGC50 (-log10 mol/L): 2.99

---

- System: Pimephales promelas
- assay.name: 96 h LC50 (-log10 mol/L); higher = more toxic
result.type: 96 h LC50 (-log10 mol/L)
Answer with a number only.

structure.string	result.type	value.reported
O=C(O)c1c(F)cccc1F	96 h LC50 (-log10 mol/L)	3.36

Lab note: measured 96 h LC50 (-log10 mol/L) of CCCC(C)=O was 1.84

Just so you know, measured 96 h LC50 (-log10 mol/L) for ClCC(Cl)Cl came out at 3.21

get_value(item= C=COC(C)=O , readout=96 h LC50 (-log10 mol/L)) returns 3.57

Query c1ccc(-c2cccc(-c3ccccc3)n2)cc1 yields 96 h LC50 (-log10 mol/L) of 6.04

In plain terms, CC(=O)Br has a documented 96 h LC50 (-log10 mol/L) of 3.48

Reported 96 h LC50 (-log10 mol/L) for C=CC(=O)OC1CCCCC1 was 5.02

Entry CCCC=O , 96 h LC50 (-log10 mol/L) reported as 3.65

// 96 h LC50 (-log10 mol/L) lookup, compound = CC(C)(O)CCc1ccccc1 , result: 3.39

For this compound ( Oc1ccccc1Cl ), measured 96 h LC50 (-log10 mol/L) is 4.02

Sure, the documented 96 h LC50 (-log10 mol/L) for Oc1cccc(O)c1 is 3.3

The compound listed as CN1CCNCC1 shows 96 h LC50 (-log10 mol/L) equal to 1.64

Note to self: 96 h LC50 (-log10 mol/L) recorded for CCOC(=O)[C@H](C)N(C(=O)c1ccccc1)c1ccc(Cl)c(Cl)c1 was 5.68

# compound CCOC(N)=O ; its 96 h LC50 (-log10 mol/L) = 1.23

Entry O=Cc1ccc(O)cc1O ; 96 h LC50 (-log10 mol/L) = 4.02

response.value for CCCCCCBr (field: 96 h LC50 (-log10 mol/L)) = 4.68

Entry O=[N+]([O-])c1c(Cl)cc(Cl)c([N+](=O)[O-])c1Cl ; 96 h LC50 (-log10 mol/L) = 6.09

Looking up CCOCC , I found its 96 h LC50 (-log10 mol/L) recorded as 1.46

Quick note, 96 h LC50 (-log10 mol/L) for COP(=S)(OC)Oc1ccc([N+](=O)[O-])cc1 landed at 4.51

Please fill in: 96 h LC50 (-log10 mol/L) reported for Cc1ccc(Cl)c(Cl)c1 = 4.74

---

- Test system: Tetrahymena pyriformis
- assay.name: 48 h IGC50 (-log10 mol/L); higher = more toxic
Ranges used to classify 48 h IGC50 (-log10 mol/L): low-valued: < 3; mid-valued: ≥ 3 and < 4; high-valued: ≥ 4

molecule	label.class
O=[N+]([O-])c1ccccc1-c1ccccc1	high-valued

Request: Where would OCCCCCc1ccccc1 land among the classes by reported 48 h IGC50 (-log10 mol/L)?
Result: mid-valued

Request: Bin this entry: c1cnc2ccc3ncccc3c2c1
Result: high-valued

Request: Please let me know in which category the item CNC(=S)NC belongs.
Result: low-valued

---

Listed here are molecules together with their documented 48 h IGC50 (-log10 mol/L).
- System: Tetrahymena pyriformis
- assay.name: 48 h IGC50 (-log10 mol/L); higher = more toxic

# count of solved cases: 3
structure.string	result.type	value.reported
CCO	48 h IGC50 (-log10 mol/L)	1.01
CCCC(=O)OC	48 h IGC50 (-log10 mol/L)	1.75
O=[N+]([O-])c1cccc(F)c1	48 h IGC50 (-log10 mol/L)	3.2

Moving on to the next molecule.
Noted for CCCCCCC#CC(=O)OCC : its 48 h IGC50 (-log10 mol/L) reads 4.38

---

- System: Pimephales promelas
- assay.name: 96 h LC50 (-log10 mol/L); higher = more toxic
result.type: 96 h LC50 (-log10 mol/L)
Number, no unit, nothing else.

compound	96 h LC50 (-log10 mol/L)
COc1cccc(OC)c1C	3.88
CCCCCCCCCc1ccc(O)cc1	5.91
O=C(O)COc1ccc(Cl)cc1Cl	2.92

response.value for CCCCCCCCc1ccc(N)cc1 (field: 96 h LC50 (-log10 mol/L)) = 6.23

96 h LC50 (-log10 mol/L) for Nc1ccccc1 is 2.99

96 h LC50 (-log10 mol/L) reading for Oc1ccc(Cl)cc1 : 4.46

compound C=C(Cl)Cl , 96 h LC50 (-log10 mol/L) observed: 2.86

compound CN(C)c1ccc(/C=C/C=O)cc1 , 96 h LC50 (-log10 mol/L) observed: 4.47
